molecular target: c-Src SH2; test: SH2 binding enrichment of the phosphorylated peptide, bacterial display (enrichment ratio); higher = better substrate or ligand; peptides without Tyr show the background;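 further: peptide library displayed on the E. coli surface as eCPX fusions, selected cells deep-sequenced, score is each peptide's frequency after selection divided by its frequency in the input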
Catalogue of SH2 binding enrichment values
Could you keep your reply to the number by itself?

Example cases with answers are listed next.
{"CONSTRUCT SEQUENCE": "KEIHAYRKLLE [LMNA_Y376_M371K]", "SH2 binding enrichment": 0.459}
{"CONSTRUCT SEQUENCE": "GGQVFHNSEFG [FLT4_Y1333_Y1333H_YF]", "SH2 binding enrichment": 0.505}
{"CONSTRUCT SEQUENCE": "KWELRYMHSRV [ABCD1_Y281_G277W]", "SH2 binding enrichment": 0.716}
{"CONSTRUCT SEQUENCE": "STLEVYSCHPP [IL21R_Y317]", "SH2 binding enrichment": 0.451}
{"CONSTRUCT SEQUENCE": "SGFESYGSSSF [RPA2_Y9_YF]", "SH2 binding enrichment": 0.404}
{"CONSTRUCT SEQUENCE": "SVVVPSEPPEV [TP53_Y220_Y220S]", "SH2 binding enrichment": 0.577}
{"CONSTRUCT SEQUENCE": "AVEDQYYRVDC [FHL1_Y207_C209R]", "SH2 binding enrichment": 0.724}
{"CONSTRUCT SEQUENCE": "GFSRHCEDGFP [CTNND1_Y217_Y217C_YF]", "SH2 binding enrichment": 0.479}

Request: Entry CTTIHYNYMCN [TP53_Y234] needs its SH2 binding enrichment filled in; supply it.
Result: 4.14

Request: Entry TKQLTYEEQFL [PIK3C3_Y310_D314Y_YF] needs its SH2 binding enrichment filled in; supply it.
Result: 0.698

Request: Entry IDPFIYTPFGS [CYP3A4_Y432_YF] needs its SH2 binding enrichment filled in; supply it.
Result: 0.604

Request: Entry TWSRSYRSDRL [CRYBB1_Y131_S129R] needs its SH2 binding enrichment filled in; supply it.
Result: 0.38

Request: Entry RPPFTYATLIR [FOXP3_Y342] needs its SH2 binding enrichment filled in; supply it.
Result: 1.25

====

target: MERTK (UniProt Q12866); experiment: phosphorylation enrichment, bacterial display (enrichment ratio); higher = better substrate or ligand; peptides without Tyr show the background
Sequence (Q12866 whole entry, looked up): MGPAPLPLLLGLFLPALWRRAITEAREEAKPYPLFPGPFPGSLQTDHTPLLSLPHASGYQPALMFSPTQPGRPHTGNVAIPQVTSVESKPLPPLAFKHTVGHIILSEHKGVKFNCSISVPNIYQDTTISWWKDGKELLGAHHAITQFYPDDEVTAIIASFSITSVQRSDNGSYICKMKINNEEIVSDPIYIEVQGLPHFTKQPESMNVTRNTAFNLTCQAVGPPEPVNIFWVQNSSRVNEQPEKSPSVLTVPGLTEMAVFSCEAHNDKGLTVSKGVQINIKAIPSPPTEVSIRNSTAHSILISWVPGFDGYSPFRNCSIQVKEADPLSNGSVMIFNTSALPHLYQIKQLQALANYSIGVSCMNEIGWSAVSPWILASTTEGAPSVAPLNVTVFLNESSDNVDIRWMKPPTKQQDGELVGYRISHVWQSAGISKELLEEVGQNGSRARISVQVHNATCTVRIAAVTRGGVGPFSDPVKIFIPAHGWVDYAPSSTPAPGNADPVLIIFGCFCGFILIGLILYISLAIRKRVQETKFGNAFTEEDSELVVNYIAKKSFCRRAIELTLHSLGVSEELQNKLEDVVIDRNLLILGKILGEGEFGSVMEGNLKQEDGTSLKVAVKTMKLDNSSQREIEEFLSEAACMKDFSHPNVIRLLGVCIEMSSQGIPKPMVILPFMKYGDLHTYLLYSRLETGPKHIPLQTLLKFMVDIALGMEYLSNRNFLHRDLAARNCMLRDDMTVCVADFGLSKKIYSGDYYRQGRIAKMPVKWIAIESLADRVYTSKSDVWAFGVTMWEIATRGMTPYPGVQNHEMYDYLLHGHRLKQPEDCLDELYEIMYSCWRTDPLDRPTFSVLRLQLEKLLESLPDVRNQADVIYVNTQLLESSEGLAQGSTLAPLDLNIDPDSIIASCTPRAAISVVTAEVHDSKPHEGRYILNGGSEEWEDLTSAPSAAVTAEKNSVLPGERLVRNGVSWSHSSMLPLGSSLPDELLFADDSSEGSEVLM
ASSAY ENDPOINT: phosphorylation enrichment
Could you keep your reply to the number by itself?

Example cases with answers are listed next.
{"CONSTRUCT SEQUENCE": "PVFQVYPLLNC [GATA1_Y78]", "TGT": "MERTK (UniProt Q12866)", "phosphorylation enrichment": 0.927}
{"CONSTRUCT SEQUENCE": "VKANTYEKFWL [GATM_Y100_P105L_YF]", "TGT": "MERTK (UniProt Q12866)", "phosphorylation enrichment": 1.19}
{"CONSTRUCT SEQUENCE": "EPSVDCCVVKI [CAD_Y735_Y735C]", "TGT": "MERTK (UniProt Q12866)", "phosphorylation enrichment": 0.376}
{"CONSTRUCT SEQUENCE": "NHFKICNLCAE [PTEN_Y68_Y68C_YF]", "TGT": "MERTK (UniProt Q12866)", "phosphorylation enrichment": 0.484}

Request: Entry LDVGEYCVPRG [BEX1_Y43_A40V] needs its phosphorylation enrichment filled in; supply it.
Result: 0.568
